assay: Microsomal stability assay, liver microsome half-life (human); type: in vitro ADME; settings: pH 7.4; human liver microsomes 0.5 mg/mL, 1 μM compound, 37° C.; read-out: Liver microsome T1/2 Human
In this section we review reported half-life at 1 μM values for a set of molecules.

Worked set:
molecule: CC(C)(c1ccc(OCc2ccnc(NS(C)(=O)=O)n2)cc1)c1cc(F)c(N2CCOCC2)c(C#N)c1 [Compound A262]
endpoint.result: > 2 h
--
molecule: CC(C)(c1ccc(OCc2ccnc(NS(C)(=O)=O)c2F)cc1)c1cc(Cl)c(OCCCl)c(C#N)c1 [Compound A48]
endpoint.result: > 2 h
--
molecule: CS(=O)(=O)Nc1nccc(COc2nnc(-c3cc(Cl)c(OCCCl)c(C#N)c3)o2)n1 [Compound A37]
endpoint.result: > 2 h
--
molecule: COc1c(Cl)cc(C(C)(C)c2ccc(-c3ccc4nc(NS(C)(=O)=O)cnc4c3)cc2)cc1C#N [Compound A269]
endpoint.result: > 2 h
--
molecule: CC(C)(c1ccc(-c2ccn3nc(NS(C)(=O)=O)nc3c2)cc1)c1cc(Cl)c(OCCCl)c(C#N)c1 [Compound A113]
endpoint.result: 1.93 h
--
molecule: CS(=O)(=O)NC12CC(COc3ccc4c(ccn4-c4cc(Cl)c(OCCCl)c(C#N)c4)c3)(C1)C2 [Compound A57]
endpoint.result: 1.15 h
--
molecule: CS(=O)(=O)Nc1nccc(COc2ccc3c(c2)CCC=C3c2cc(Cl)c(OCCCl)c(C#N)c2)n1 [Compound A32]
endpoint.result: 1.14 h
--
molecule: CS(=O)(=O)Nc1nccc(COc2ccc3c(c2)CCC3c2cc(Cl)c(OCCCl)c(C#N)c2)n1 (centres unmarked) [Compound A35]
endpoint.result: > 2 h
--
molecule: CS(=O)(=O)NC1CCN(CCc2ccc3c(ccn3-c3cc(Cl)c(OCCCl)c(C#N)c3)c2)CC1 [Compound A187]
endpoint.result: > 2 h
--
molecule: CC(C)(c1ccc(-c2ccc3nc(NS(C)(=O)=O)cnc3c2)cc1)c1cc(Cl)c(OCCCl)c(C#N)c1 [Compound A107]
endpoint.result: > 2 h

Please look up its half-life at 1 μM: CC(C)(c1ccc(OCC23CC(NS(C)(=O)=O)(C2)C3)cc1)c1cc(Cl)c(OCCCl)c(C#N)c1 [Compound A132]
> 2 h

Follow-up item: CC(C)(c1ccc(-c2ccc3c(c2)CCN(S(C)(=O)=O)C3)cc1)c1cc(Cl)c(OCCCl)c(C#N)c1 [Compound A114]
> 2 h

What do we get for CNC(=O)c1ccc(N2C(=S)N(c3ccc(C#N)c(C(F)(F)F)c3)C(=O)C2(C)C)cc1F [Enzalutamide, enzalutamide, reference compound] ?
> 2 h

CC(C)(c1ccc(-c2ccc3nc(NS(C)(=O)=O)ccc3n2)cc1)c1cc(Cl)c(OCCCl)c(C#N)c1 [Compound A191] ?
> 2 h

====

experiment: Microsomal stability assay, liver microsome half-life (mouse); assay type: in vitro ADME; details: pH 7.4; mouse liver microsomes 0.5 mg/mL, 1 μM compound, 37° C.; read-out: Liver microsome T1/2 Mouse
quantity: half-life at 1 μM

molecule: CC(C)(c1ccc(-c2cnc3c(c2)CCC3NS(C)(=O)=O)cc1)c1cc(Cl)c(OCCCl)c(C#N)c1 (stereo not shown)
half-life at 1 μM: > 2 h
//
molecule: CC(C)(c1ccc(-c2ccc3c(c2)CCN(S(C)(=O)=O)C3)cc1)c1cc(Cl)c(OCCCl)c(C#N)c1
half-life at 1 μM: > 2 h

Which value of half-life at 1 μM has been reported for `CS(=O)(=O)Nc1nccc(COc2nnc(-c3cc(Cl)c(OCCCl)c(C#N)c3)s2)n1` in the records?
> 2 h

Continue with CS(=O)(=O)NC1CCN(Cc2ccc3c(ccn3-c3cc(Cl)c(OCCCl)c(C#N)c3)c2)CC1(F)F (stereo not shown)
> 2 h

Consider next the molecule CS(=O)(=O)Nc1nccc(COc2ccc3c(c2)CCC3c2cc(Cl)c(OCCCl)c(C#N)c2)n1 (stereo not shown) in the same way.
> 2 h

And for `CS(=O)(=O)N[C@H]1C[C@H](COc2ccc3c(ccn3-c3cc(Cl)c(OCCCl)c(C#N)c3)c2)C1` ?
1.97 h

Check `CC(C)(c1ccc(-c2ccc3nc(NS(C)(=O)=O)ncc3c2)cc1)c1cc(Cl)c(OCCCl)c(C#N)c1` too.
> 2 h

====

IC50 by entry:
target: androgen receptor (AR) (Homo sapiens, UniProt P10275, T878A); assay: Androgen-induced PSA (6.1 kb)-luciferase reporter assay in LNCaP cells (R1881 1 nM); format: cell-based; set-up: endogenous in cells; host or cells: LNCaP; conditions: 24 h, read-out: PSA-Luc IC50 Range
Sequence (P10275 whole entry T878A): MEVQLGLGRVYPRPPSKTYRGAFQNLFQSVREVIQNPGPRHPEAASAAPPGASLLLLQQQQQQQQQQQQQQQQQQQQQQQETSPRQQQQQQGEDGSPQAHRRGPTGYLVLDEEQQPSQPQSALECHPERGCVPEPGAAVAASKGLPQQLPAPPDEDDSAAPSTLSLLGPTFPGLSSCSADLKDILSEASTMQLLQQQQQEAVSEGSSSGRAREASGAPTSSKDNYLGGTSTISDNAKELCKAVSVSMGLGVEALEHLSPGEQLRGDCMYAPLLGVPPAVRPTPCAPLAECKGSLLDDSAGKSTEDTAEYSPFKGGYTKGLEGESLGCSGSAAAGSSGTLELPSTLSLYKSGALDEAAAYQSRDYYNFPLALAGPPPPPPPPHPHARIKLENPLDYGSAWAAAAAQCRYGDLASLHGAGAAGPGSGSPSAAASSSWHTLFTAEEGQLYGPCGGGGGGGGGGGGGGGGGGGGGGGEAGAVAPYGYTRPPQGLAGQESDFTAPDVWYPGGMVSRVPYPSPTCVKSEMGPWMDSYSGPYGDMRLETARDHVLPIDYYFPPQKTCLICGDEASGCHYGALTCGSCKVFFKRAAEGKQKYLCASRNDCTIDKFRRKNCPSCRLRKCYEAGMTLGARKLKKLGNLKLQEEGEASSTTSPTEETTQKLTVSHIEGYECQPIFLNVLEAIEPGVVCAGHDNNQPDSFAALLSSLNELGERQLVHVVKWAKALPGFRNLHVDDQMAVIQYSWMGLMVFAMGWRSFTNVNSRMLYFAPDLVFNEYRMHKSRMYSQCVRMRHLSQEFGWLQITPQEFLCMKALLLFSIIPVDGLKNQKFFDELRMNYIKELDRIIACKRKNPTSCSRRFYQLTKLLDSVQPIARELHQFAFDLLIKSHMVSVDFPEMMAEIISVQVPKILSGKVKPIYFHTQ

Completed entries (count: 3):
compound: CS(=O)(=O)NC12CC(COc3ccc4c(ccn4-c4cc(Cl)c(OCCCl)c(C#N)c4)c3)(C1)C2
measurement.target: androgen receptor (AR) (Homo sapiens, UniProt P10275, T878A)
endpoint.result: < 500 nM
//
compound: CS(=O)(=O)Nc1cnc2cc(-c3ccc4c(c3)CCC4c3cc(Cl)c(OCCCl)c(C#N)c3)ccc2n1 (stereo not shown)
measurement.target: androgen receptor (AR) (Homo sapiens, UniProt P10275, T878A)
endpoint.result: 500 to 2000 nM
//
compound: CS(=O)(=O)Nc1ncc(Cn2ncc3ccc(-c4cc(Cl)c(OCCCl)c(C#N)c4)cc32)cn1
measurement.target: androgen receptor (AR) (Homo sapiens, UniProt P10275, T878A)
endpoint.result: > 2000 nM

Could you now consider this next compound?
Form field: reported IC50 of `CC(C)(c1ccc(OCc2ccnc(NS(C)(=O)=O)n2)cc1)c1cnc(OCCCl)c(Cl)c1`
> 2000 nM

====

assay: Microsomal stability assay, liver microsome half-life (monkey); type: in vitro ADME; details: pH 7.4; monkey liver microsomes 0.5 mg/mL, 1 μM compound, 37° C.; read-out: Liver microsome T1/2 Monkey
quantity: half-life at 1 μM

molecule: CS(=O)(=O)NC1CCN(Cc2ccc3c(ccn3-c3cc(Cl)c(OCCCl)c(C#N)c3)c2)CC1 [Compound A169]
endpoint.result: > 120 min
--
molecule: CC(C)(c1ccc(OCc2ccnc(NS(C)(=O)=O)n2)cc1)c1ccc(OCC(O)CCl)cc1 (stereo not drawn) [Compound A150]
endpoint.result: > 120 min
--
molecule: COc1c(Cl)cc(C(C)(C)c2ccc(-c3ccc4nc(NS(C)(=O)=O)cnc4c3)cc2)cc1C#N [Compound A269]
endpoint.result: > 120 min
--
molecule: CS(=O)(=O)Nc1nccc(COc2ccc3c(ccn3-c3cc(Cl)c(OCCCl)c(C#N)c3)c2)n1 [Compound A36]
endpoint.result: > 120 min
--
molecule: CC(C)(c1ccc(-c2ccc3nc(NS(C)(=O)=O)cnc3c2)cc1)c1cc(Cl)c(OCCCl)c(C#N)c1 [Compound A107]
endpoint.result: > 120 min

Reported half-life at 1 μM, molecule CC(C)(c1ccc(-c2ccc3nc(NS(C)(=O)=O)sc3c2)cc1)c1cc(Cl)c(OCCCl)c(C#N)c1 [Compound A274] : ____
> 120 min

Can you check CC(C)(c1ccc(-c2ccc3c(c2)CCN(S(C)(=O)=O)C3)cc1)c1cc(Cl)c(OCCCl)c(C#N)c1 [Compound A114] next?
> 120 min

====

molecular target: androgen receptor (AR) (Homo sapiens, UniProt P10275, T878A); experiment: Androgen-induced PSA (6.1 kb)-luciferase reporter assay in LNCaP cells (R1881 1 nM); format: cell-based; design: endogenous in cells; host or cells: LNCaP; conditions: 24 h, read-out: PSA-Luc IC50 Range
quantity: IC50

Please review the following examples before continuing.
compound: CC(C)(c1ccc(OCc2ccnc(NS(C)(=O)=O)n2)cc1)c1cc(Cl)c(N2CCC(CO)CC2)c(C#N)c1
IC50: 500 to 2000 nM
--
compound: CS(=O)(=O)N1CC2(CCN(Cc3ccc4c(ccn4-c4cc(Cl)c(OCCCl)c(C#N)c4)c3)CC2)C1
IC50: > 2000 nM
--
compound: CS(=O)(=O)Nc1nccc(COc2ccc(-n3ccc4c(C#N)c(OCCCl)c(Cl)cc43)cc2)n1
IC50: 500 to 2000 nM
--
compound: COc1c(Cl)cc(C2CCc3cc(-c4ccc5nc(NS(C)(=O)=O)cnc5c4)ccc32)cc1C#N (centres unmarked)
IC50: 500 to 2000 nM
--
compound: CS(=O)(=O)NC1CCN(Cc2ccc3c(ccn3-c3cc(Cl)c(OCCCl)c(C#N)c3)c2)CC1
IC50: > 2000 nM

// lookup IC50 for `CC(C)(c1ccc(-c2n[nH]c3nc(NS(C)(=O)=O)ncc23)cc1)c1cc(Cl)c(OCCCl)c(C#N)c1`
500 to 2000 nM

Can you handle CS(=O)(=O)Nc1nccc(COc2ccc3c(c2)CC[C@@H]3c2cc(Cl)c(OCCCl)c(C#N)c2)n1 [A35(R)] next?
< 500 nM

Field entry: `Cn1nc(-c2cc(Cl)c(OCCCl)c(C#N)c2)c2ccc(OCc3ccnc(NS(C)(=O)=O)n3)cc21`
> 2000 nM

Repeat with `CC(C)(c1ccc(OCc2ncncc2N)cc1)c1cc(Cl)c(OCCCl)c(C#N)c1`
500 to 2000 nM
